Tested on: A549
METHOD: Inhibition of pseudotyped HIV/EBOV GP infected in human A549 cells assessed as reduction in virus entry at 12.5 uM measured after 48 hrs by luciferase reporter gene assay relative to control
Assay type: cell-based
RUN PARAMETERS: Ebolavirus
Lab note: anything with inhibition at or over 60% counts as Yes; the rest go in No.

Check if inhibition >= 60% (inclusive). Item: O=C(c1ccc(CN2CCCCC2)cc1)N1CCc2ccc(Cl)cc21 Yes

Ok, now O=C(c1ccc(CN2CCCCC2)cc1)N1CCc2ccc(F)cc21 No

Ok, now COC(=O)c1ccc(NC(=O)c2ccc(CN3CCOCC3)cc2)cc1 No

Ok, now O=C(Nc1ccc(C23CC4CC(CC(C4)C2)C3)cc1)c1ccc(CN2CCCCC2)cc1 Yes

Ok, now O=C(c1ccc(CN2CCCCC2)cc1)N1CCc2cc(C(F)(F)F)ccc21 No
